propertyName: pIC50
Note on units: pIC50 is unitless, being -log10 of a concentration expressed in mol/L.

Hey, UniProt:P50225 data for `O=[N+]([O-])c1cc(Cl)c(O)c(Cl)c1` : pIC50 came out at 7.28

---

propertyName: pIC50
In textbook form, pIC50 equals minus log to base ten of the concentration in mol/L.

Value (pIC50, UniProt P0DMM9) for record `O=[N+]([O-])c1cc(Cl)c(O)c(Cl)c1` = 3.08

These measurements were taken from paper PMC2767256.
